// provenance: ChEMBL document CHEMBL4321812

Molecular target: Serine/threonine-protein kinase TAO3 (Homo sapiens)
Sequence (Q9H2K8 whole entry): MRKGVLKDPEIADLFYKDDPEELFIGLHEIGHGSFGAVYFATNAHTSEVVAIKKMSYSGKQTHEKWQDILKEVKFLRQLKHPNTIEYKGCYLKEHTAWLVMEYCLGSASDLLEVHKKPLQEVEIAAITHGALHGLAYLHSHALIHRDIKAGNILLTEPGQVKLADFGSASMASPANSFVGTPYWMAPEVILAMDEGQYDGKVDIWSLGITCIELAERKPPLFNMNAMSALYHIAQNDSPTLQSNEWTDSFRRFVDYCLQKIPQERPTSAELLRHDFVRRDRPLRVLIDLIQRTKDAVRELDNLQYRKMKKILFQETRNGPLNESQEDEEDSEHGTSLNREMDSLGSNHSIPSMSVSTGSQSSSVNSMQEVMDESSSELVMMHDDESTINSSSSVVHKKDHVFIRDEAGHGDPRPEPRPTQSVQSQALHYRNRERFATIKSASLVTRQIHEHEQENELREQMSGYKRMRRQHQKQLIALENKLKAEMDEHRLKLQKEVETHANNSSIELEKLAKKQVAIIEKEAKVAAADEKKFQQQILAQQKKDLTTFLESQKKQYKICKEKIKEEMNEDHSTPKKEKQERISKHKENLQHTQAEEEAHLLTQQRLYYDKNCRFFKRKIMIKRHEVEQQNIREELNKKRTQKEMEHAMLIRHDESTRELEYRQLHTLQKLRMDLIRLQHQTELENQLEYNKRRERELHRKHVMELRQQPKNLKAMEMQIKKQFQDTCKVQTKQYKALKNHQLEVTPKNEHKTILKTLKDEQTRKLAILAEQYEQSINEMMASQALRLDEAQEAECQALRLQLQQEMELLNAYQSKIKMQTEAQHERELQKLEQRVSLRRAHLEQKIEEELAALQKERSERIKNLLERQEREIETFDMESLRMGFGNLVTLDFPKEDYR
Test: Binding affinity to recombinant human full length N-terminal GST-tagged TAOK3 expressed in baculovirus expression system using PKC-epsilon peptide as substrate incubated for 1 hr by TR-FRET assay

SUBSTANCE_SMILES	Kd
CO[C@@H]1[C@H](NCCOCCOCCOCCNC(=O)CCC2=[N+]3C(=Cc4c(C)cc(C)n4[B-]3(F)F)C=C2)C[C@H]2O[C@]1(C)n1c3ccccc3c3c4c(c5c6ccccc6n2c5c31)C(=O)NC4	360 nM
CO[C@@H]1[C@H](N(C)CCOCCOCCOCCNC(=O)CCC2=[N+]3C(=Cc4c(C)cc(C)n4[B-]3(F)F)C=C2)C[C@H]2O[C@]1(C)n1c3ccccc3c3c4c(c5c6ccccc6n2c5c31)C(=O)NC4	293 nM

###

Target: Testis-specific serine/threonine-protein kinase 1 (Homo sapiens)
Sequence (Q9BXA7 whole entry): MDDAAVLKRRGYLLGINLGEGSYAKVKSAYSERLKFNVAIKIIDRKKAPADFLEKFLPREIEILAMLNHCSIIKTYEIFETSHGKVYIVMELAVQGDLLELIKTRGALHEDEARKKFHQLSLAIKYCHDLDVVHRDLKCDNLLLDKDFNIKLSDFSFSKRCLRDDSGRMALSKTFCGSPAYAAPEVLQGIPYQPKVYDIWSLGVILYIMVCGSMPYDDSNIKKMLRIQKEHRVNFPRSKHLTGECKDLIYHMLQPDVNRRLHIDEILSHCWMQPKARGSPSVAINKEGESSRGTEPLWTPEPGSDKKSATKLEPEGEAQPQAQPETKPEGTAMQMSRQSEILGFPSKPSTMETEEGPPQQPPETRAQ
Test: Binding affinity to recombinant full-length N-terminal His-FLAG-GST-tagged TSSK1B (unknown origin) expressed in baculovirus infected Sf9 insect cells incubated for 1 hr by TR-FRET assay
Each entry below carries its recorded Kd.
MEASURED_PARAMETER: Kd (µM)

SUBSTANCE_SMILES	MEASURED_PARAMETER	ENDPOINT_VALUE
CO[C@@H]1[C@H](N(C)CCOCCOCCOCCNC(=O)CCC2=[N+]3C(=Cc4c(C)cc(C)n4[B-]3(F)F)C=C2)C[C@H]2O[C@]1(C)n1c3ccccc3c3c4c(c5c6ccccc6n2c5c31)C(=O)NC4	Kd	0.019
CO[C@@H]1[C@H](NCCOCCOCCOCCNC(=O)CCC2=[N+]3C(=Cc4c(C)cc(C)n4[B-]3(F)F)C=C2)C[C@H]2O[C@]1(C)n1c3ccccc3c3c4c(c5c6ccccc6n2c5c31)C(=O)NC4	Kd	0.018

###

Each entry below carries its recorded Kd.
molecular target: Mitogen-activated protein kinase kinase kinase 9 (Homo sapiens); test: Binding affinity to recombinant N-terminal His-FLAG-GST-tagged MAP3K9 (unknown origin) (110 to 422 residues) expressed in baculovirus infected Sf9 insect cells incubated for 1 hr by TR-FRET assay
Sequence (P80192 whole entry, the tested form may be a part): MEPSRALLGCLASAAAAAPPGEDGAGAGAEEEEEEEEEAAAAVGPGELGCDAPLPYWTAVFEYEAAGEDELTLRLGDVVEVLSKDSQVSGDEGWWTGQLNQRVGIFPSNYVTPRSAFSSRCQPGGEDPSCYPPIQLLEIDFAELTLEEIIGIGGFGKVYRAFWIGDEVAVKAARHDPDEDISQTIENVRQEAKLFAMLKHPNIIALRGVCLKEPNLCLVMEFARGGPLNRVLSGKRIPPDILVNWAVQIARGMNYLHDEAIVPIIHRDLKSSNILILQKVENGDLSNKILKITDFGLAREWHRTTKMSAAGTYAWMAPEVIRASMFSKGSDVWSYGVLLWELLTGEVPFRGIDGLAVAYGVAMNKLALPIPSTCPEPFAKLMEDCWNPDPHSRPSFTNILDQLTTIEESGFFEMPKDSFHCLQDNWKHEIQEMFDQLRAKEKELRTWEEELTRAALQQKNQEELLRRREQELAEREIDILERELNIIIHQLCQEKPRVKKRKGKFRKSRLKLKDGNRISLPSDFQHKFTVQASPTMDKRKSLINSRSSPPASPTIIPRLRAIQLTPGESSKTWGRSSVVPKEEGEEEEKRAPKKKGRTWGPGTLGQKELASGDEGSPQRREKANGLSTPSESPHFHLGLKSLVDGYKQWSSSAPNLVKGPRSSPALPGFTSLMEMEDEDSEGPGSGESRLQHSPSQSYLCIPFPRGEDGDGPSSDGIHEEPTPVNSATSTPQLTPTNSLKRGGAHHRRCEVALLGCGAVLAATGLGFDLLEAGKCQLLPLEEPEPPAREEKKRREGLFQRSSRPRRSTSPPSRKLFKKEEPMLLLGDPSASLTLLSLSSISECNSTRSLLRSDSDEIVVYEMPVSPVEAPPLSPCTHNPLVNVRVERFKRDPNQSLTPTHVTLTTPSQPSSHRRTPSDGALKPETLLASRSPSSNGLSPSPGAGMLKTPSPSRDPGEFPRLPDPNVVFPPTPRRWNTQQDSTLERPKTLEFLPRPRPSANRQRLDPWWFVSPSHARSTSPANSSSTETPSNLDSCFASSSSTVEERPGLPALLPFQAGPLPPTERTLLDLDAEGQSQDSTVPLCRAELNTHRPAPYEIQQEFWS
MEASURED_PARAMETER: Kd (nM)

SUBSTANCE_SMILES	ENDPOINT_VALUE
CO[C@@H]1[C@H](N(C)CCOCCOCCOCCNC(=O)CCC2=[N+]3C(=Cc4c(C)cc(C)n4[B-]3(F)F)C=C2)C[C@H]2O[C@]1(C)n1c3ccccc3c3c4c(c5c6ccccc6n2c5c31)C(=O)NC4	3
CO[C@@H]1[C@H](NCCOCCOCCOCCNC(=O)CCC2=[N+]3C(=Cc4c(C)cc(C)n4[B-]3(F)F)C=C2)C[C@H]2O[C@]1(C)n1c3ccccc3c3c4c(c5c6ccccc6n2c5c31)C(=O)NC4	2

###

target: UniProt P51617; assay: Binding affinity to recombinant N-terminal His-FLAG-GST-tagged IRAK1 (unknown origin) (194 to 712 residues) expressed in baculovirus infected Sf9 insect cells incubated for 1 hr by TR-FRET assay
Sequence (P51617 whole entry, the tested form may be a part): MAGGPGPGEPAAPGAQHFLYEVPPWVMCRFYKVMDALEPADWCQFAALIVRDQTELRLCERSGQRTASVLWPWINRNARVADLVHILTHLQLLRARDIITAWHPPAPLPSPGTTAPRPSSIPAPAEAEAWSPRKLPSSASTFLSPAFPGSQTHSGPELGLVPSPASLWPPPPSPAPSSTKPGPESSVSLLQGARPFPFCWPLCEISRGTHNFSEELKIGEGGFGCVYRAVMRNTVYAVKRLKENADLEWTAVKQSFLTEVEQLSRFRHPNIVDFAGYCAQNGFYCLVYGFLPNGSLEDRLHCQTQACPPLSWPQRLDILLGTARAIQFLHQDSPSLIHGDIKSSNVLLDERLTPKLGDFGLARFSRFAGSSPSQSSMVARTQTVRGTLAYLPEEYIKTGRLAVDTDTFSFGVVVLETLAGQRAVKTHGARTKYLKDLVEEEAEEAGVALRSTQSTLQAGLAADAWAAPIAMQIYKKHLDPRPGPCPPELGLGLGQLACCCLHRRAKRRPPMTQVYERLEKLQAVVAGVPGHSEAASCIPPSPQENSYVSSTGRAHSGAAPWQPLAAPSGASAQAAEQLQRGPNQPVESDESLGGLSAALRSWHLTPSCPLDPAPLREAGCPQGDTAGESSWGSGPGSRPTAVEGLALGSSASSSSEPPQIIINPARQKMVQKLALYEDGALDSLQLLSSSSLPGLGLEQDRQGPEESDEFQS

SUBSTANCE_SMILES	Kd / nM
CO[C@@H]1[C@H](N(C)CCOCCOCCOCCNC(=O)CCC2=[N+]3C(=Cc4c(C)cc(C)n4[B-]3(F)F)C=C2)C[C@H]2O[C@]1(C)n1c3ccccc3c3c4c(c5c6ccccc6n2c5c31)C(=O)NC4	609
CO[C@@H]1[C@H](NCCOCCOCCOCCNC(=O)CCC2=[N+]3C(=Cc4c(C)cc(C)n4[B-]3(F)F)C=C2)C[C@H]2O[C@]1(C)n1c3ccccc3c3c4c(c5c6ccccc6n2c5c31)C(=O)NC4	299

###

biological target: Serine/threonine-protein kinase BRSK1 (Homo sapiens, UniProt Q8TDC3); assay: Binding affinity to recombinant full-length N-terminal His-FLAG-GST-tagged BRSK1 (unknown origin) expressed in baculovirus infected Sf9 insect cells incubated for 1 hr by TR-FRET assay
Sequence (Q8TDC3 whole entry): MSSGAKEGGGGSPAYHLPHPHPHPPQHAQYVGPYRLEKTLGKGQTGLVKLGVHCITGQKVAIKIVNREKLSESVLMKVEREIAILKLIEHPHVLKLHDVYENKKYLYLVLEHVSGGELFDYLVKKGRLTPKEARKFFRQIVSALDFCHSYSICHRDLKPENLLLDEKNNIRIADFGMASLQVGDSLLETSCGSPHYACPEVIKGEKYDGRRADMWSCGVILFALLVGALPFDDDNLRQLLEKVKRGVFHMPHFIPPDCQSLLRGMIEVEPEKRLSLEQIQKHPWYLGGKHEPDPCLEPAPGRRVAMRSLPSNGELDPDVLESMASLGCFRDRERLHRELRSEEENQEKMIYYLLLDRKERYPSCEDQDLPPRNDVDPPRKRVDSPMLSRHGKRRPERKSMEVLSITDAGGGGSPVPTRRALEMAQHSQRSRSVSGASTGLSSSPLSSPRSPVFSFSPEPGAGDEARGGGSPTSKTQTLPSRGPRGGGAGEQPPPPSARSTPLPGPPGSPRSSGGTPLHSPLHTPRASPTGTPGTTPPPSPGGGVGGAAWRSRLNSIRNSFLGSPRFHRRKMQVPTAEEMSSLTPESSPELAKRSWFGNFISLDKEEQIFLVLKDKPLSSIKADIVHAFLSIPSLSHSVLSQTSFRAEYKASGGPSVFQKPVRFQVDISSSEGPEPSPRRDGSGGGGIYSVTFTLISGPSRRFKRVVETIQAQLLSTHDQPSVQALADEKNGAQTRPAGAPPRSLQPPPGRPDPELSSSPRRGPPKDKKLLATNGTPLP
pKd: −log10 of the molar value.
Each entry below carries its recorded pKd.
MEASURED_PARAMETER: pKd

SUBSTANCE_SMILES	ASSAYED_TARGET	ENDPOINT_VALUE
CO[C@@H]1[C@H](N(C)CCOCCOCCOCCNC(=O)CCC2=[N+]3C(=Cc4c(C)cc(C)n4[B-]3(F)F)C=C2)C[C@H]2O[C@]1(C)n1c3ccccc3c3c4c(c5c6ccccc6n2c5c31)C(=O)NC4	Serine/threonine-protein kinase BRSK1 (Homo sapiens, UniProt Q8TDC3)	6.71
CO[C@@H]1[C@H](NCCOCCOCCOCCNC(=O)CCC2=[N+]3C(=Cc4c(C)cc(C)n4[B-]3(F)F)C=C2)C[C@H]2O[C@]1(C)n1c3ccccc3c3c4c(c5c6ccccc6n2c5c31)C(=O)NC4	Serine/threonine-protein kinase BRSK1 (Homo sapiens, UniProt Q8TDC3)	6.96

###

molecular target: Serine/threonine-protein kinase 25 (Homo sapiens); experiment: Binding affinity to recombinant full-length N-terminal His-FLAG-GST-tagged STK25 (unknown origin) expressed in baculovirus infected Sf9 insect cells incubated for 1 hr by TR-FRET assay
Sequence (O00506 whole entry): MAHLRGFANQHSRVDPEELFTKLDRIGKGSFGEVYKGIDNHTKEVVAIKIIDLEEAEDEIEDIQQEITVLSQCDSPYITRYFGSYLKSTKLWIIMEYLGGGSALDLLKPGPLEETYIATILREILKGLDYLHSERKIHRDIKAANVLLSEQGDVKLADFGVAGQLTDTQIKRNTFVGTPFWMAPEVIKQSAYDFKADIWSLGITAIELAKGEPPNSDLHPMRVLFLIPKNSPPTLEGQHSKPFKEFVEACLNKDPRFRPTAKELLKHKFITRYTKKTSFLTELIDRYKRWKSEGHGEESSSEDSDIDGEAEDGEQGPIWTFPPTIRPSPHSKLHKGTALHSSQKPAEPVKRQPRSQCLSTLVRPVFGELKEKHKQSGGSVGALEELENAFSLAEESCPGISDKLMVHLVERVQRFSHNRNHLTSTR
Each entry below carries its recorded Kd.

SUBSTANCE_SMILES	Kd
CO[C@@H]1[C@H](N(C)CCOCCOCCOCCNC(=O)CCC2=[N+]3C(=Cc4c(C)cc(C)n4[B-]3(F)F)C=C2)C[C@H]2O[C@]1(C)n1c3ccccc3c3c4c(c5c6ccccc6n2c5c31)C(=O)NC4	443 nM
CO[C@@H]1[C@H](NCCOCCOCCOCCNC(=O)CCC2=[N+]3C(=Cc4c(C)cc(C)n4[B-]3(F)F)C=C2)C[C@H]2O[C@]1(C)n1c3ccccc3c3c4c(c5c6ccccc6n2c5c31)C(=O)NC4	444 nM

###

target: UniProt Q15746; assay: Binding affinity to recombinant full-length N-terminal His-FLAG-GST-tagged MYLK (unknown origin) (1428 to 1771 residues) expressed in baculovirus infected Sf9 insect cells incubated for 1 hr by TR-FRET assay
Sequence (Q15746 whole entry, the tested form may be a part): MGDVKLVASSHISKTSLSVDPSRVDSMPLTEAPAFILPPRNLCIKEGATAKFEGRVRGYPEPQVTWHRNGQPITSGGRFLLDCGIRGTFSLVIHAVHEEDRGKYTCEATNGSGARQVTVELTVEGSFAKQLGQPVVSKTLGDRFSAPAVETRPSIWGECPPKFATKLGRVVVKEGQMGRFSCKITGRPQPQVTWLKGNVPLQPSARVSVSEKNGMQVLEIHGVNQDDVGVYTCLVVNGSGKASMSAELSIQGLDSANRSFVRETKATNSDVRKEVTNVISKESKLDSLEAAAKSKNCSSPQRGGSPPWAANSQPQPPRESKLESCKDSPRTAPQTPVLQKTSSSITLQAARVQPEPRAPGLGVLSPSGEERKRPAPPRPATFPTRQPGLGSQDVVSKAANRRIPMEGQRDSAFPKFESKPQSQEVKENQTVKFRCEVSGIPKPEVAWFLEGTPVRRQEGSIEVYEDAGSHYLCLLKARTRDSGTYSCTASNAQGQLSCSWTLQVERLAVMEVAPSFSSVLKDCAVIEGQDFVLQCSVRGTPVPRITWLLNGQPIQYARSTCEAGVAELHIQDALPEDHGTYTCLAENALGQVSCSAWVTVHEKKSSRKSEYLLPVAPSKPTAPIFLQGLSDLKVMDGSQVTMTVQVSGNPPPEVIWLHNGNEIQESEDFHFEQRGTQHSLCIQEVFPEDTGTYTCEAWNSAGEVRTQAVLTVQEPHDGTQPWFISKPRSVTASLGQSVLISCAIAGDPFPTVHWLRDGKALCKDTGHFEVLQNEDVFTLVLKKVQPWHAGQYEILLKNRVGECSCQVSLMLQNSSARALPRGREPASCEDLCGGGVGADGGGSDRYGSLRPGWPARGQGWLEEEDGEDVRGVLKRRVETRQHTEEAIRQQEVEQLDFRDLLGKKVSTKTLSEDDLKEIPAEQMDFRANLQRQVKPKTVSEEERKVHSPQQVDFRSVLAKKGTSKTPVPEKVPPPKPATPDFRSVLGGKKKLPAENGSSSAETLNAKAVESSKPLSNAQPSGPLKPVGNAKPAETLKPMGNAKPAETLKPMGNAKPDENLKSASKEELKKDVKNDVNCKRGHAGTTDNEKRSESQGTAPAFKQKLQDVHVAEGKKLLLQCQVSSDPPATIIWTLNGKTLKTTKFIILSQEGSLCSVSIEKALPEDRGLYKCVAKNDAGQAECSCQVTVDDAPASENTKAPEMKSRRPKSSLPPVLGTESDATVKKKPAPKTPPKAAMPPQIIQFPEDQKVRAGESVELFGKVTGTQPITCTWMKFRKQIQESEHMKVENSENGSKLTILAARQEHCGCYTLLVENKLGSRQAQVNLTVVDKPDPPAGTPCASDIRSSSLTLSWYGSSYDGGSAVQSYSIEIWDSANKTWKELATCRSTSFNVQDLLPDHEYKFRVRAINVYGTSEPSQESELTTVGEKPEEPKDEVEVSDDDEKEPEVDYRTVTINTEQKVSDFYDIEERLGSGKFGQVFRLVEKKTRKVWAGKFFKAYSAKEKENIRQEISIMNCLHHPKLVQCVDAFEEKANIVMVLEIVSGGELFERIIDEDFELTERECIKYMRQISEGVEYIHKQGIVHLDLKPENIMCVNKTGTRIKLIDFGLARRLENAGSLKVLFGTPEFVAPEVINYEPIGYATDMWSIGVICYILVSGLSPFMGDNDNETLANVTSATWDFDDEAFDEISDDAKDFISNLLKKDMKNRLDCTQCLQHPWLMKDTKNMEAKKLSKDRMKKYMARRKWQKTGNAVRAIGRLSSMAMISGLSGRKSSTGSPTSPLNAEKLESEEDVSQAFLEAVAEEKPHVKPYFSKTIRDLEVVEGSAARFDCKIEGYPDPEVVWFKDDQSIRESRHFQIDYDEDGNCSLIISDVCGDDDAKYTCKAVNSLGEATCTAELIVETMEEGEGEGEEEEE
pKd: −log10 of the molar value.
MEASURED_PARAMETER: pKd

SUBSTANCE_SMILES	ASSAYED_TARGET	ENDPOINT_VALUE
CO[C@@H]1[C@H](NCCOCCOCCOCCNC(=O)CCC2=[N+]3C(=Cc4c(C)cc(C)n4[B-]3(F)F)C=C2)C[C@H]2O[C@]1(C)n1c3ccccc3c3c4c(c5c6ccccc6n2c5c31)C(=O)NC4	UniProt Q15746	6.43
CO[C@@H]1[C@H](N(C)CCOCCOCCOCCNC(=O)CCC2=[N+]3C(=Cc4c(C)cc(C)n4[B-]3(F)F)C=C2)C[C@H]2O[C@]1(C)n1c3ccccc3c3c4c(c5c6ccccc6n2c5c31)C(=O)NC4	UniProt Q15746	6.53
